Target: T1, Recombinant human TSG-6 (R&D Biosystems, catalog #2104-TS) (human, UniProt P98066 18-277)
T1 construct: Bought protein; also called hTSG-6; Tumor necrosis factor-inducible gene 6 protein
T1 sequence (P98066 18-277 limits assumed): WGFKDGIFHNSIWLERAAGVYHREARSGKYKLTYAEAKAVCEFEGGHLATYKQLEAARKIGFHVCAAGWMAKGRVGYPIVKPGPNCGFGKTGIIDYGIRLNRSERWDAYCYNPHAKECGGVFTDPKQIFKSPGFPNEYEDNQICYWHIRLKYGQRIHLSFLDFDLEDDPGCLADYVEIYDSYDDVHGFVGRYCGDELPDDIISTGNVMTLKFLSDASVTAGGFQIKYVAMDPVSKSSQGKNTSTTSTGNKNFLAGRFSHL
Test: ELISA of hybridoma supernatants on recombinant human TSG-6
Procedure: Mouse antibodies directed against mouse TSG-6 protein (mTSG-6) were generated using conventional mouse monoclonal antibody techniques. Briefly, mice (strain SJL/J) were inoculated with KLH-coupled recombinant mouse TSG-6 (R&D Biosystems, catalog #2326-TS). After boosting, antibody titers were determined by ELISA, using a non-relevant His6-tagged protein as a control. […]

{"columns": ["binder", "binding result"],
 "data": [
  ["3E4 (antibody, V domains shown, Entries as printed include a leader and part of the constant region) VH: QVQLQQPGAELVKPGASVKLSCKASGYTFTSQWMHWVKQRPGQGLEWIGMIHPNSGSTNNNEKFKSKATLTVDKSSSTAYMQLSSLTSEDSAVYYCTRWAMDYWGQGTSVTASS VL: DVVMTQTPLSLPVSLGDLASISCRSSQSLVHSNGNTYLHWYLQKPGQSPKLLIFKVSNRFSGVPDRFSGSGSGTDFTLKISRVEAEDLGVYFCSQSTHVPWTFGGGTKLEIKR", "binds"],
  ["4F1 (antibody, V domains shown, Entries as printed include a leader and part of the constant region) VH: EVKLVESGGGLVQPGGSLSLSCAASGFTFTDYYMSWVRQPPGKALEWLGFIRHKAKGYTAEYSASVKGRFTISRDNSQSILYLQMNALRAEDSATYYCARLYYYGSPHWYFDVWGTGTTVTVSS VL: QIVLTQSPAIMSASPGEKVTMTCSASSSVSYMHWYQQKSGTSPKRWIYDTSKLASGVPARFSGSGSGTSYSLTISSMEAEDAATYYCQQWSSNPPTFGSGTELEIKR", "binds"]
]}
